conditions: in methanol, 313.15 K
MEASURED_PARAMETER: solubility (mole fraction)

What solubility (mole fraction) value was documented for this molecule, C1CNCCNCCNCCN1 ?
0.00318

* * *

details: in methanol, 318.15 K
MEASURED_PARAMETER: solubility (mole fraction)
Reply with just the number.

What solubility (mole fraction) value was documented for this compound, C1CNCCNCCNCCN1 ?
0.00321

* * *

conditions: in methanol, 308.15 K
MEASURED_PARAMETER: solubility (mole fraction)
Reply with just the number.

What solubility (mole fraction) value was documented for this compound, C1CNCCNCCNCCN1 ?
0.00305

* * *

conditions: in methanol, 303.15 K
MEASURED_PARAMETER: solubility (mole fraction)
Reply with just the number.

What solubility (mole fraction) value was documented for this compound, C1CNCCNCCNCCN1 ?
0.00268
